Target: Pyruvate dehydrogenase kinase (Homo sapiens, UniProt Q15119+Q15120+Q16654+Q15118)
Experiment: Binding affinity to pyruvate dehydrogenase kinase (unknown origin) by VER-00160364 probe based fluorescence polarization assay
Quick reference for IC50 among some compounds
The reply should contain only the number, in nM.

Below are worked cases with known answers.
COMPOUND: CN(CCNC(=O)OC(C)(C)C)C(=O)c1ccc2c(c1)CCCN2C(=O)c1ccc(O)cc1O
VALUE OBSERVED: 1000
//
COMPOUND: CC1CCc2cc(-c3ncccc3C(F)(F)F)ccc2N1C(=O)c1ccc(O)cc1O (stereo not drawn)
VALUE OBSERVED: 100
//
COMPOUND: O=C(c1ccc(O)cc1O)N1c2ccccc2CCC1c1ccco1 (stereo not drawn)
VALUE OBSERVED: 1000
//
COMPOUND: CC1CCc2cc(-c3ncccc3C(F)(F)F)ccc2N1C(=O)c1cc(Cl)c(O)cc1O (stereo not drawn)
VALUE OBSERVED: 1000

GET /value?item= CC1CCc2cc(C(=O)N(C)c3cccc(F)c3)ccc2N1C(=O)c1ccc(O)cc1O (stereo not drawn) &field=IC50 returns 100

GET /value?item= Cc1nc(C(F)(F)F)nc(-c2ccc3c(c2)CC[C@H](C)N3C(=O)c2ccc(O)cc2O)c1C &field=IC50 returns 100

GET /value?item= Cc1cc(S(=O)(=O)N(C)C)cnc1-c1ccc2c(c1)CC[C@H](C)N2C(=O)c1ccc(O)cc1O &field=IC50 returns 10

GET /value?item= COc1cnc(Cl)nc1-c1ccc2c(c1)CCC(c1cccnc1)N2C(=O)c1ccc(O)cc1O (stereo not drawn) &field=IC50 returns 1000

====

Molecular target: Pyruvate dehydrogenase kinase (Homo sapiens, UniProt Q15119+Q15120+Q16654+Q15118)
Experiment: Binding affinity to pyruvate dehydrogenase kinase (unknown origin) by VER-00160364 probe based fluorescence polarization assay
ENDPOINT: IC50 (nM)
The reply should contain only the number, in nM.

Below are worked cases with known answers.
COMPOUND: CC1CCc2cc(C(=O)N(C)Cc3ccc(Cl)c(Cl)c3)ccc2N1C(=O)c1ccc(O)cc1O (stereo unspecified)
IC50 (nM): 100
//
COMPOUND: C[C@H]1CCc2cc(-c3nc4ccccc4cc3CO)ccc2N1C(=O)c1ccc(O)cc1O
IC50 (nM): 100
//
COMPOUND: C[C@H]1CCc2cc(C(=O)N(C)Cc3cccc4cnccc34)ccc2N1C(=O)c1ccc(O)cc1O
IC50 (nM): 10
//
COMPOUND: Cn1nccc1-c1ccc2c(c1)CCCN2C(=O)c1ccc(O)cc1O
IC50 (nM): 100

GET /value?item= O=C(c1ccc(O)cc1O)N1c2ccc(-c3nc4ccc(Cl)cc4cc3CO)cc2CCC1c1cccnc1 (stereo unspecified) &field=IC50 returns 100

GET /value?item= O=C(c1ccc(O)cc1O)N1c2ccccc2CCC1c1ccccn1 (stereo unspecified) &field=IC50 returns 1000

GET /value?item= Cc1nc(C)c(-c2ccc3c(c2)CC[C@H](C)N3C(=O)c2ccc(O)cc2O)s1 &field=IC50 returns 1000

GET /value?item= Cc1cnc(Cl)nc1-c1ccc2c(c1)CCC(c1cccnc1)N2C(=O)c1ccc(O)cc1O (stereo unspecified) &field=IC50 returns 10

GET /value?item= Cc1cc(-c2ccc3c(c2)CC[C@H](C)N3C(=O)c2ccc(O)cc2O)nnc1Cl &field=IC50 returns 100

GET /value?item= Cc1cc(CNc2ccc(-c3ccc4c(c3)CC[C@H](C)N4C(=O)c3ccc(O)cc3O)c(C)n2)on1 &field=IC50 returns 100

GET /value?item= CN(CC(F)(F)F)C(=O)c1ccc2c(c1)CCCN2C(=O)c1ccc(O)cc1O &field=IC50 returns 1000
